B1: EHEE_rd2_0196 (parent)
chain: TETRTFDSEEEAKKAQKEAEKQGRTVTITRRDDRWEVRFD

variants of: B1; assay: folding stability dG (cDNA display proteolysis); higher = more stable; conditions: PBS, room temperature
# folding stability dG binned as lower bin = under 2 kcal/mol, middle bin = from 2 kcal/mol up to 3 kcal/mol, upper bin = 3 kcal/mol and over

biopolymer_sequence	group
TETRTFDSEEEAKKARKEAEKQGRTVTITRRDDRWEVRFD	middle bin
TETRTFDSEEEAKKATKEAEKQGRTVTITRRDDRWEVRFD	middle bin
TETRTFDSEEEAKKAQKEAEKQGRTVTITRRDQRWEVRFD	middle bin
TETRTFDSHEEAKKAQKEAEKQGRTVTITRRDDRWEVRFD	middle bin
TETRTFDSEEEAKKAQKLAEKQGRTVTITRRDDRWEVRFD	middle bin
TETRTFDSEEEAKKAQKEHEKQGRTVTITRRDDRWEVRFD	middle bin
TETRTFDSEEGAKKAQKEAEKQGRTVTITRRDDRWEVRFD	middle bin
TETRTFDSEEEAKKAQKEAEKPGRTVTITRRDDRWEVRFD	lower bin
TETRTFDSEEEEKKAQKEAEKQGRTVTITRRDDRWEVRFD	lower bin
TETRTFDSEEEAKKAQKEAEKQGRTKTITRRDDRWEVRFD	lower bin
TETRTFDSEEEAKKAQKEAEKQHRTVTITRRDDRWEVRFD	middle bin
TETRTFDSEEEAKKAQKEAEKQGRTVTNTRRDDRWEVRFD	lower bin
TETRTFDSEEEAKKAQKEAEKQGRTVTITRRDPRWEVRFD	lower bin
TETRTFDSEEEAKKAQKEAEKQGRTNTITRRDDRWEVRFD	lower bin
TETRTFDGEEEAKKAQKEAEKQGRTVTITRRDDRWEVRFD	lower bin
TETRTFDSEEEAKKAQKEAEKQGRTVTITRRDDRWEIRFD	middle bin
TETRTFDSEEEAKKAQKEAEKQGRTLTITRRDDRWEVRFD	lower bin
TETRTFDSEEEAKKAQKEAAKQGRTVTITRRDDRWEVRFD	middle bin
TETRTFDSEEEAKKAQKEAEKQGRTVTIERRDDRWEVRFD	middle bin
TETRTRDSEEEAKKAQKEAEKQGRTVTITRRDDRWEVRFD	lower bin
TETRTFHSEEEAKKAQKEAEKQGRTVTITRRDDRWEVRFD	middle bin
TETRTFDSEEEAKKAQKEAEKQGRTVTITRDDDRWEVRFD	lower bin
TETRTFDSEEEAKKAQKEAEKQGRTVTITRRDDRWEVRSD	middle bin
TETRTFDSEEEAKKAQKEAEKQGRTVTITRRDDIWEVRFD	upper bin
TETRTFDSEEEAKKAQKEAEKQGRTVTITRRDDRWEVRFK	middle bin
TETRTFDSEEEAKKAQKEAEKQGRTVTITRRHDRWEVRFD	middle bin
TWTRTFDSEEEAKKAQKEAEKQGRTVTITRRDDRWEVRFD	upper bin
TETRTFDSEEEAKKWQKEAEKQGRTVTITRRDDRWEVRFD	upper bin
TETRTFNSEEEAKKAQKEAEKQGRTVTITRRDDRWEVRFD	middle bin
TETRTFDSEEEAKKAQKEAEKQGRTVTITLRDDRWEVRFD	middle bin
TETRTFDSEEEAKKAQKEAEKQGRTVTITRRDDRWEARFD	lower bin
TETRTFDAEEEAKKAQKEAEKQGRTVTITRRDDRWEVRFD	lower bin
TETRTPDSEEEAKKAQKEAEKQGRTVTITRRDDRWEVRFD	lower bin
TETRTFDSEEEAKKAQKEPEKQGRTVTITRRDDRWEVRFD	lower bin
TETRTFDSEEEAKKAQKEAEKQGRTVTITRRDDRWEVAFD	middle bin
TETRTGDSEEEAKKAQKEAEKQGRTVTITRRDDRWEVRFD	lower bin
TETRTFDSEEEAKKAQKEAEKDGRTVTITRRDDRWEVRFD	middle bin
TETRRFDSEEEAKKAQKEAEKQGRTVTITRRDDRWEVRFD	middle bin
TETRTFDSEEEAKKEQKEAEKQGRTVTITRRDDRWEVRFD	middle bin
TETRTFDSEEEAKKAQKEAERQGRTVTITRRDDRWEVRFD	upper bin
TETRTFDSEEEAKKAQKEAEWQGRTVTITRRDDRWEVRFD	middle bin
TETRTFDSEEEAKKAQKEAEKQGITVTITRRDDRWEVRFD	upper bin
TETRTFDSEEEAKKAQKEAEKQGRTVTIDRRDDRWEVRFD	lower bin
TETRTYDSEEEAKKAQKEAEKQGRTVTITRRDDRWEVRFD	upper bin
TETRTFDSEEEAKKAQKEAEKFGRTVTITRRDDRWEVRFD	middle bin
TETRTFDSEEEAKKAQKEAEKQGRTVTITKRDDRWEVRFD	upper bin
TETRTFDSEEEAKKAQKEARKQGRTVTITRRDDRWEVRFD	middle bin
TETRCFDSEEEAKKAQKEAEKQGRTVTITRRDDRWEVRFD	middle bin
TETRTFDSEEEAKKAQKEAEKQGRTVTITRRDDRWEVQFD	middle bin
TETRTFDSEEEAKKAQKEAEKQGRTVTITRRDDFWEVRFD	upper bin
TETRTFDSEEEAKKAQKEAEKQGRTVTITRRDDRWNVRFD	lower bin
TETRTFDSEEEAKKAQKEAEKQARTVTITRRDDRWEVRFD	lower bin
TETRTFDSEEEAIKAQKEAEKQGRTVTITRRDDRWEVRFD	upper bin
TETRTFDSEEEAKKAQKEAEKQGRTVTITRRDDRWGVRFD	lower bin
TETRTFDSEEEAKKAQKEAEKQGRTGTITRRDDRWEVRFD	middle bin
TETRTFDSEEEAKKAQKEAEKQQRTVTITRRDDRWEVRFD	lower bin
TETRTFDSEEEAKKAQKEAEKQGRTVTITRRDDPWEVRFD	lower bin
TETRTFDSEEEAKKAQKEAEKQGRTVTIMRRDDRWEVRFD	middle bin
TETRTFDSEEEAKKAQKEAEKQGRTVTITRRDDRWERRFD	lower bin
TETRTIDSEEEAKKAQKEAEKQGRTVTITRRDDRWEVRFD	lower bin
TETRTFDSEEEAKKAQKEAEKVGRTVTITRRDDRWEVRFD	middle bin
TVTRTFDSEEEAKKAQKEAEKQGRTVTITRRDDRWEVRFD	upper bin
TETRTFDSEEEAKKAQKEAEKQGRTVHITRRDDRWEVRFD	middle bin
TETRTFDSEEEAKKAQKEAEKQGRTVTITRRDRRWEVRFD	lower bin
TETRTFDSEEEAKKAQKGAEKQGRTVTITRRDDRWEVRFD	lower bin
TETRTFDSEEEAKKAQKEAEKQGRTVTITRRDDRWENRFD	lower bin
TETRTFDSEEEAKKAEKEAEKQGRTVTITRRDDRWEVRFD	middle bin
TETRTFDSEEEAKKAQKEAEKQGRTVTITRRDDRWEVPFD	lower bin
TETRTFYSEEEAKKAQKEAEKQGRTVTITRRDDRWEVRFD	upper bin
TETRTFDSEEEAKKAQKEAEKQGRTVTITRRDDRWDVRFD	middle bin
TETRTFDSEEEAKKAQKEAEKQGRTVTITGRDDRWEVRFD	lower bin
TEYRTFDSEEEAKKAQKEAEKQGRTVTITRRDDRWEVRFD	upper bin
TETRTFDSEEEAKKAQKEAEKQGRTVTITRKDDRWEVRFD	upper bin
TETRTADSEEEAKKAQKEAEKQGRTVTITRRDDRWEVRFD	lower bin
TETRTFVSEEEAKKAQKEAEKQGRTVTITRRDDRWEVRFD	middle bin
TETRTFDSEEEAKKAQVEAEKQGRTVTITRRDDRWEVRFD	upper bin
TGTRTFDSEEEAKKAQKEAEKQGRTVTITRRDDRWEVRFD	middle bin
